- Test system: rice
- PROCEDURE DETAILS: Low temperature assay on rice seedlings
- Format: in vivo
- CONDITIONS: 0.001 mg/l, 5 °C, 12 days
OBSERVATION TYPE: Height (cm)

COMPOUND	MEASURED NUMBER
CC(C)C[C@@H](O)[C@H](O)[C@@H](C)[C@H]1CCC2C3CC(=O)C4C[C@H](O)[C@H](O)C[C@]4(C)C3CC[C@@]21C (stereo partly drawn)	8
C=C(C(C)C)[C@@H](O)[C@H](O)[C@@H](C)[C@H]1CCC2C3COC(=O)C4C[C@H](O)[C@H](O)C[C@]4(C)C3CC[C@@]21C (stereo partly drawn)	7.9
CC(C)[C@H](C)[C@@H](O)[C@H](O)[C@@H](C)[C@H]1CCC2C3COC(=O)C4C[C@H](O)[C@H](O)C[C@]4(C)C3CC[C@@]21C (stereo partly drawn)	8.2
CC(C)(O)CC[C@@H](O)[C@](C)(O)[C@H]1CC[C@@]2(O)[C@@H]3CC(=O)[C@@H]4C[C@@H](O)[C@@H](O)C[C@]4(C)[C@H]3CC[C@]12C	8.2
CC[C@@H](C(C)C)[C@@H](O)[C@H](O)[C@@H](C)[C@H]1CCC2C3COC(=O)C4C[C@H](O)[C@H](O)C[C@]4(C)C3CC[C@@]21C (stereo partly drawn)	8
CC(C)[C@H](C)[C@@H](O)[C@H](O)[C@@H](C)[C@H]1CCC2C3CC(=O)C4C[C@H](O)CC[C@]4(C)C3CC[C@@]21C (stereo partly drawn)	7.9

----------
# Area of leaf annotations
- Test system: rice
- PROCEDURE DETAILS: Low temperature assay on rice seedlings
- Assay type: in vivo
- CONDITIONS: 0.1 mg/l, 5 °C, 12 days
- Text: According to a low temperature assay, we measured parameters including plant height, number of leaf, area of leaf, number of tiller, weight of root at low temperature to completely determine effects of the natural brassinolide analogues on the resistance to low temperature of a plant. The natural brassinolide analogues, BR1, BR2, BR3, BR4, BR5 and BR6, used herein, were those prepared by the method of Example 1. […]

MOLECULE	ASSAYED SYSTEM	Area of leaf (cm^2)
CC(C)(O)CC[C@@H](O)[C@](C)(O)[C@H]1CC[C@@]2(O)[C@@H]3CC(=O)[C@@H]4C[C@@H](O)[C@@H](O)C[C@]4(C)[C@H]3CC[C@]12C	rice	18.9
C=C(C(C)C)[C@@H](O)[C@H](O)[C@@H](C)[C@H]1CCC2C3COC(=O)C4C[C@H](O)[C@H](O)C[C@]4(C)C3CC[C@@]21C (stereo partly drawn)	rice	17.9
CC(C)[C@H](C)[C@@H](O)[C@H](O)[C@@H](C)[C@H]1CCC2C3COC(=O)C4C[C@H](O)[C@H](O)C[C@]4(C)C3CC[C@@]21C (stereo partly drawn)	rice	19
CC(C)[C@H](C)[C@@H](O)[C@H](O)[C@@H](C)[C@H]1CCC2C3CC(=O)C4C[C@H](O)CC[C@]4(C)C3CC[C@@]21C (stereo partly drawn)	rice	17.8
CC[C@@H](C(C)C)[C@@H](O)[C@H](O)[C@@H](C)[C@H]1CCC2C3COC(=O)C4C[C@H](O)[C@H](O)C[C@]4(C)C3CC[C@@]21C (stereo partly drawn)	rice	19
CC(C)C[C@@H](O)[C@H](O)[C@@H](C)[C@H]1CCC2C3CC(=O)C4C[C@H](O)[C@H](O)C[C@]4(C)C3CC[C@@]21C (stereo partly drawn)	rice	19

----------
- System: rice
- PROCEDURE DETAILS: Low temperature assay on rice seedlings
- Assay type: in vivo
- CONDITIONS: 1 mg/l, 3 °C, 6 days

MOLECULE	ASSAYED SYSTEM	Height / cm
C=C(C(C)C)[C@@H](O)[C@H](O)[C@@H](C)[C@H]1CCC2C3COC(=O)C4C[C@H](O)[C@H](O)C[C@]4(C)C3CC[C@@]21C (stereo partly drawn)	rice	7.5
CC(C)C[C@@H](O)[C@H](O)[C@@H](C)[C@H]1CCC2C3CC(=O)C4C[C@H](O)[C@H](O)C[C@]4(C)C3CC[C@@]21C (stereo partly drawn)	rice	7.5
CC[C@@H](C(C)C)[C@@H](O)[C@H](O)[C@@H](C)[C@H]1CCC2C3COC(=O)C4C[C@H](O)[C@H](O)C[C@]4(C)C3CC[C@@]21C (stereo partly drawn)	rice	7.5
CC(C)[C@H](C)[C@@H](O)[C@H](O)[C@@H](C)[C@H]1CCC2C3COC(=O)C4C[C@H](O)[C@H](O)C[C@]4(C)C3CC[C@@]21C (stereo partly drawn)	rice	7.2
CC(C)(O)CC[C@@H](O)[C@](C)(O)[C@H]1CC[C@@]2(O)[C@@H]3CC(=O)[C@@H]4C[C@@H](O)[C@@H](O)C[C@]4(C)[C@H]3CC[C@]12C	rice	7.3
CC(C)[C@H](C)[C@@H](O)[C@H](O)[C@@H](C)[C@H]1CCC2C3CC(=O)C4C[C@H](O)CC[C@]4(C)C3CC[C@@]21C (stereo partly drawn)	rice	7.5

----------
- Test system: rice
- PROCEDURE DETAILS: Low temperature assay on rice seedlings
- Assay type: in vivo
- CONDITIONS: 0.001 mg/l, 1 °C, 9 days
# Weight of root annotations
OBSERVATION TYPE: Weight of root (g)

>>> df
                                   compound  assayed_system  observation_type  value_units  measured_number
0  CC(C)[C@H](C)[C@@H](O)[C@H](O)[C@@H](C)[C@H]1CCC2C3COC(=O)C4C[C@H](O)[C@H](O)C[C@]4(C)C3CC[C@@]21C (stereo partly drawn)            rice    Weight of root            g              3.4
1  CC(C)C[C@@H](O)[C@H](O)[C@@H](C)[C@H]1CCC2C3CC(=O)C4C[C@H](O)[C@H](O)C[C@]4(C)C3CC[C@@]21C (stereo partly drawn)            rice    Weight of root            g              3.3
2  CC(C)[C@H](C)[C@@H](O)[C@H](O)[C@@H](C)[C@H]1CCC2C3CC(=O)C4C[C@H](O)CC[C@]4(C)C3CC[C@@]21C (stereo partly drawn)            rice    Weight of root            g              3.2

----------
- Tested on: rice
- PROCEDURE DETAILS: Low temperature assay on rice seedlings
- Format: in vivo
- CONDITIONS: 0.001 mg/l, 3 °C, 9 days

COMPOUND	Height
CC(C)[C@H](C)[C@@H](O)[C@H](O)[C@@H](C)[C@H]1CCC2C3COC(=O)C4C[C@H](O)[C@H](O)C[C@]4(C)C3CC[C@@]21C (stereo partly drawn) [BR1]	7.4 cm
CC(C)C[C@@H](O)[C@H](O)[C@@H](C)[C@H]1CCC2C3CC(=O)C4C[C@H](O)[C@H](O)C[C@]4(C)C3CC[C@@]21C (stereo partly drawn) [BR5]	7.3 cm
CC[C@@H](C(C)C)[C@@H](O)[C@H](O)[C@@H](C)[C@H]1CCC2C3COC(=O)C4C[C@H](O)[C@H](O)C[C@]4(C)C3CC[C@@]21C (stereo partly drawn) [BR2]	7.3 cm
CC(C)[C@H](C)[C@@H](O)[C@H](O)[C@@H](C)[C@H]1CCC2C3CC(=O)C4C[C@H](O)CC[C@]4(C)C3CC[C@@]21C (stereo partly drawn) [BR4]	7.4 cm
CC(C)(O)CC[C@@H](O)[C@](C)(O)[C@H]1CC[C@@]2(O)[C@@H]3CC(=O)[C@@H]4C[C@@H](O)[C@@H](O)C[C@]4(C)[C@H]3CC[C@]12C [BR6]	7.4 cm
C=C(C(C)C)[C@@H](O)[C@H](O)[C@@H](C)[C@H]1CCC2C3COC(=O)C4C[C@H](O)[C@H](O)C[C@]4(C)C3CC[C@@]21C (stereo partly drawn) [BR3]	7.3 cm

----------
# Height annotations
- Test system: rice
- PROCEDURE DETAILS: Low temperature assay on rice seedlings
- Assay type: in vivo
- CONDITIONS: 0.0001 mg/l, 2 °C, 3 days

COMPOUND	Height / cm
CC(C)[C@H](C)[C@@H](O)[C@H](O)[C@@H](C)[C@H]1CCC2C3CC(=O)C4C[C@H](O)CC[C@]4(C)C3CC[C@@]21C (stereo partly drawn)	6.8
CC(C)[C@H](C)[C@@H](O)[C@H](O)[C@@H](C)[C@H]1CCC2C3COC(=O)C4C[C@H](O)[C@H](O)C[C@]4(C)C3CC[C@@]21C (stereo partly drawn)	7.1
CC(C)C[C@@H](O)[C@H](O)[C@@H](C)[C@H]1CCC2C3CC(=O)C4C[C@H](O)[C@H](O)C[C@]4(C)C3CC[C@@]21C (stereo partly drawn)	6.8
C=C(C(C)C)[C@@H](O)[C@H](O)[C@@H](C)[C@H]1CCC2C3COC(=O)C4C[C@H](O)[C@H](O)C[C@]4(C)C3CC[C@@]21C (stereo partly drawn)	6.8
CC[C@@H](C(C)C)[C@@H](O)[C@H](O)[C@@H](C)[C@H]1CCC2C3COC(=O)C4C[C@H](O)[C@H](O)C[C@]4(C)C3CC[C@@]21C (stereo partly drawn)	6.8
CC(C)(O)CC[C@@H](O)[C@](C)(O)[C@H]1CC[C@@]2(O)[C@@H]3CC(=O)[C@@H]4C[C@@H](O)[C@@H](O)C[C@]4(C)[C@H]3CC[C@]12C	7.1

// provenance: patent US9326506B2
